result_type: melting point (°C)

O=C(Nc1ccc2cccnc2c1)c1cc2ncc(C(F)(F)F)cc2s1 [Example 6]
296
O=C(Nc1ccc2cccnc2c1)c1cc2ccc(C(F)(F)F)cc2s1
229.7
